Kindly supply the reported inhibition values for the records listed here.
SYSTEM_UNDER_TEST: Serine/threonine-protein kinase PAK 6 (Homo sapiens) (UniProt Q9NQU5);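 further: values are mean percent inhibition of PAK6 kinase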
Sequence (Q9NQU5 whole entry, looked up): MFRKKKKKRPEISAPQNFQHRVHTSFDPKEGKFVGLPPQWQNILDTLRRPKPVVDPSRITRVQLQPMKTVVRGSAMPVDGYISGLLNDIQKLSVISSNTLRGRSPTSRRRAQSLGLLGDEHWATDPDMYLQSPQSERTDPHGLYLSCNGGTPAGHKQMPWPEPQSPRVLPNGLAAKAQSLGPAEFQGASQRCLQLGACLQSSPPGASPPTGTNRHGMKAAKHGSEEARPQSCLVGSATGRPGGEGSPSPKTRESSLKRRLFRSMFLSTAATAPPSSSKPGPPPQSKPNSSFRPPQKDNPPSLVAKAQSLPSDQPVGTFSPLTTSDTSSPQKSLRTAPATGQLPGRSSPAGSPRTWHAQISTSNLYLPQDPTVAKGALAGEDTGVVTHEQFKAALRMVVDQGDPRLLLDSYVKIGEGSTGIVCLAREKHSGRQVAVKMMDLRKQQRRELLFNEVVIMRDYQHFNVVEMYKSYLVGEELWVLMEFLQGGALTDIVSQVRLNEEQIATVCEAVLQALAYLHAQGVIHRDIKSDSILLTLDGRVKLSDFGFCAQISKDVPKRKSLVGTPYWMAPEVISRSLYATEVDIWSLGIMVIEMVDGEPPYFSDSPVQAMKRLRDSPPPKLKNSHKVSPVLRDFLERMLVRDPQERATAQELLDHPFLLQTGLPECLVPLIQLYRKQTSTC
CONDITION_CONTEXT: at 1 µM
Give bare numbers, in %.

// known answers, use as guide
{"SMILES_REPR": "Cc1cccc2c1NC(=O)/C2=N\\Nc1ccc(S(N)(=O)=O)cc1", "inhibition (%)": 7.35}
{"SMILES_REPR": "Nc1nc(-c2cccc(Cl)c2)c(-c2ccc3ncccc3n2)s1", "inhibition (%)": -0.98}
{"SMILES_REPR": "COc1cc2ncn(-c3cc(OCc4ccccc4C(F)(F)F)c(C(=O)N(C)C)s3)c2cc1OC", "inhibition (%)": -4.14}
{"SMILES_REPR": "FC(F)(F)c1cccc(-c2nn3ncccc3c2-c2ccnc(Nc3ccc4c(c3)OCCO4)n2)c1", "inhibition (%)": -1.75}
{"SMILES_REPR": "COc1ccc2c(-c3ccnc(Nc4cccc(OC(F)(F)F)c4)n3)cnn2n1", "inhibition (%)": 6.82}

Qu. Please give the measured inhibition for this compound: O=C(O[C@H]1CN[C@H](C#Cc2cc3ncnc(Nc4ccc(Cc5ccccc5)cc4)c3s2)C1)N1CCOCC1
Ans. -5.73

---

For each of the compounds below, state its inhibition.
SYSTEM_UNDER_TEST: Cyclin-dependent kinase 4 (Homo sapiens) (UniProt P11802)
Sequence (P11802 whole entry): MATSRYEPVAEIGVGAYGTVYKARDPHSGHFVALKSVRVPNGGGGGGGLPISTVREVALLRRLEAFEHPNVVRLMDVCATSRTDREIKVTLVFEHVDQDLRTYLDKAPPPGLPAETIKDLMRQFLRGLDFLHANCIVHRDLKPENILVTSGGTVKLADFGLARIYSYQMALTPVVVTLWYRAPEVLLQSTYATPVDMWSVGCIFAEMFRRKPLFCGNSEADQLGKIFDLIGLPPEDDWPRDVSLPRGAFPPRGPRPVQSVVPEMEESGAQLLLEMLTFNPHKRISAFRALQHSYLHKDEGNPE
CONDITION_CONTEXT: at 0.1 µM
Description: GSK_PKIS: CDK4/cyclinD mean inhibition at 0.1 uM [Nanosyn]
One number for each entry, in %.

Some solved cases for reference:
{"SMILES_REPR": "Nc1nc(-c2cccc(Cl)c2)c(-c2ccc3ncccc3n2)s1", "ENDPOINT_UNIT": "%", "RESULT": 1.67}
{"SMILES_REPR": "c1cc(-c2cnn3nc(N4CCOCC4)ccc23)nc(NC2CC2)n1", "ENDPOINT_UNIT": "%", "RESULT": 15}

Provide reported inhibition for each item, in the same order as listed.
1. CCNC(=O)O[C@H]1CN[C@H](C#Cc2cc3ncnc(Nc4ccc(OCc5cccc(F)c5)c(Cl)c4)c3s2)C1
2. c1ccc(-c2nc3n(c2-c2ccc4c(c2)OCO4)CCC3)nc1
3. CCc1nn2ncccc2c1-c1ccnc(NC2CC2)n1

Ans.
[2.39, 2.02, 5.47]

---

Assign inhibition to each entry below.
SYSTEM_UNDER_TEST: Dual specificity tyrosine-phosphorylation-regulated kinase 1A (Homo sapiens) (UniProt Q13627)
CONDITION_CONTEXT: at 1 µM
Description: GSK_PKIS: DYRK1A mean inhibition at 1 uM [Nanosyn]
Give bare numbers, in %.

{"SMILES_REPR": "NS(=O)(=O)c1ccc(N/N=C2\\C(=O)Nc3ccc4ncccc4c32)cc1", "inhibition / %": 61.6}

For each entry beneath this line, provide reported inhibition.
1. CNC(=O)c1cccc(C#Cc2cncnc2Nc2ccc(OCc3cccc(F)c3)c(Cl)c2)c1
2. NC(=O)c1sc(-n2cnc3ccc(C(F)(F)F)cc32)cc1OCc1ccccc1Br
3. O=S(=O)(CCNCc1ccc(-c2ccc3ncnc(Nc4ccc(OCc5cccc(F)c5)c(Cl)c4)c3c2)o1)c1ccccc1
4. Fc1ccc(-c2nn3ncccc3c2-c2ccnc(Nc3ccc4c(c3)OCCO4)n2)cc1
5. COc1ccc2[nH]c3c4[nH]c5ccc(OC)cc5c4c4c(c3c2c1)C(=O)NC4=O

Ans.
1: 1.36; 2: 8.54; 3: 5.29; 4: 3.37; 5: 43.1

// batch mode: one inhibition value per listed entry
1. N#Cc1c(NC(=O)CN2CCOCC2)sc2c1CCCC2
2. CC(C)(CO)CNC(=O)c1ccc2c(c1)/C(=N/Nc1ccc(S(N)(=O)=O)cc1)C(=O)N2
3. CCN(CC)S(=O)(=O)c1ccc(OC)c(Nc2ncc(-c3ccccc3)o2)c1
4. Nc1nc(-c2ccc(F)cc2)c(-c2ccc3ncccc3n2)s1

Ans.
[11, 7.83, 10.9, 37.4]

---

Please respond with reported inhibition for every item in the list.
SYSTEM_UNDER_TEST: Serine/threonine-protein kinase B-raf (Homo sapiens);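 further: mean percent inhibition of BRAF kinase activity, from the GSK PKIS kinase inhibitor screening set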
CONDITION_CONTEXT: at 0.1 µM

{"SMILES_REPR": "N#Cc1c(NC(=O)c2ccc(F)cc2)sc2c1CCCC2", "RESULT": "1.72%"}
{"SMILES_REPR": "CCc1nn2ncccc2c1-c1ccnc(NC2CC2)n1", "RESULT": "2.93%"}
{"SMILES_REPR": "Cc1cccc(Nc2ncc(-c3ccccc3)o2)c1", "RESULT": "2.32%"}
{"SMILES_REPR": "COc1ccc(-c2oc3ncnc(N)c3c2-c2ccc(NC(=O)Nc3cc(C(F)(F)F)ccc3F)cc2)cc1", "RESULT": "6.96%"}

For every listed record, write down its inhibition.
1. O=C(O[C@H]1CN[C@H](C#Cc2cc3ncnc(Nc4ccc(Cc5ccccc5)cc4)c3s2)C1)N1CCOCC1
2. NC(=O)c1sc(-n2cnc3ccc(C(F)(F)F)cc32)cc1OCc1ccccc1Br
3. CCn1c(-c2nonc2N)nc2c(C#CC(C)(C)O)ncc(OC3CCNCC3)c21
4. CN(C)CCOc1ccc(-c2nc(-c3ccncc3)c(-c3ccc4c(c3)CC/C4=N\O)[nH]2)cc1
5. COC(=O)Nc1nc2ccc(S(=O)(=O)c3ccc(NC(=O)Nc4cc(C(F)(F)F)ccc4F)cc3)cc2[nH]1
6. N#Cc1c(NC(=O)CN2CCOCC2)sc2c1CCCC2

Ans.
1: 3.95%; 2: 6.14%; 3: 3.57%; 4: 63.5%; 5: 3.07%; 6: 5.62%

---

SYSTEM_UNDER_TEST: Calcium/calmodulin-dependent protein kinase type IV (Homo sapiens) (UniProt Q16566);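 further: each value is a mean inhibition of CAMK4, part of the GSK PKIS kinase screening panel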
Sequence (Q16566 whole entry): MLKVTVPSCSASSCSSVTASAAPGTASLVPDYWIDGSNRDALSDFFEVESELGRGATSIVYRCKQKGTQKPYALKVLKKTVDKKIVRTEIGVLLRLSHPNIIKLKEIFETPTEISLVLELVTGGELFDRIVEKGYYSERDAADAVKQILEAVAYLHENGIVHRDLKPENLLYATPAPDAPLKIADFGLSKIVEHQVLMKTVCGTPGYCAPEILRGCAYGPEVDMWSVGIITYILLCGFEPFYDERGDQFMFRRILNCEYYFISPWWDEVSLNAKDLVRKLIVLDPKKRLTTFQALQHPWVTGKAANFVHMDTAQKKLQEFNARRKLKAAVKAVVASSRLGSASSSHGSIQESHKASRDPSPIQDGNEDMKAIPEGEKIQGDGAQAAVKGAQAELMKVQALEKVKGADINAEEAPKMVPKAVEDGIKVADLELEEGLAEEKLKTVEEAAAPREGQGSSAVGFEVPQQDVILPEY
CONDITION_CONTEXT: at 0.1 µM
REPORTED_METRIC: inhibition (%)
Numbers only, in %.

{"COMPOUND": "CNC(=O)c1cc(-c2ccc(F)cc2)cc(-c2ccc(S(=O)(=O)N3CCCC3)cc2)c1N", "REPORTED_METRIC": "inhibition", "ENDPOINT_UNIT": "%", "RESULT": -1.57}
{"COMPOUND": "CC1=C(C(=O)Nc2cc(Cl)c3[nH]ncc3c2)C(c2ccc(C(F)(F)F)cc2)CC(=O)N1 (stereo not given)", "REPORTED_METRIC": "inhibition", "ENDPOINT_UNIT": "%", "RESULT": -0.37}
{"COMPOUND": "N#Cc1c(NC(=O)c2ccc(F)cc2)sc2c1CCCC2", "REPORTED_METRIC": "inhibition", "ENDPOINT_UNIT": "%", "RESULT": -0.9}
{"COMPOUND": "O=C(Nc1n[nH]c2cc(-c3ccc(F)cc3)ccc12)C1CC1", "REPORTED_METRIC": "inhibition", "ENDPOINT_UNIT": "%", "RESULT": -0.12}
{"COMPOUND": "CCn1c(-c2nonc2N)nc2c(C#CC(C)(C)O)nc(OC[C@H](N)c3ccccc3)cc21", "REPORTED_METRIC": "inhibition", "ENDPOINT_UNIT": "%", "RESULT": -0.61}

For each of the compounds below, note its inhibition.
1. Clc1ccc(-c2nn3ncccc3c2-c2ccnc(Nc3ccccc3)n2)cc1
2. c1ccc(-c2nc3n(c2-c2ccc4c(c2)OCO4)CCC3)nc1
3. COc1ccc(CNC(=O)c2ccc(-c3cc(-c4nnc(C)o4)ccc3C)cc2)cc1
4. [O-][S+]1CCN(Cc2ccc(-c3ccc4ncnc(Nc5ccc(OCc6cccc(F)c6)c(Cl)c5)c4c3)o2)CC1
5. COc1cc(/C=N/Nc2ncnc3[nH]ncc23)ccc1O

Ans.
[4.89, 0.61, -1.83, 0.28, -0.14]

---

Hi there, I'd appreciate the recorded inhibition for every entry that follows.
SYSTEM_UNDER_TEST: Serine/threonine-protein kinase PAK 5 (Homo sapiens) (UniProt Q9P286);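 further: values are mean percent inhibition of PAK5 from a kinase inhibitor set screen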
Sequence (Q9P286 whole entry, looked up): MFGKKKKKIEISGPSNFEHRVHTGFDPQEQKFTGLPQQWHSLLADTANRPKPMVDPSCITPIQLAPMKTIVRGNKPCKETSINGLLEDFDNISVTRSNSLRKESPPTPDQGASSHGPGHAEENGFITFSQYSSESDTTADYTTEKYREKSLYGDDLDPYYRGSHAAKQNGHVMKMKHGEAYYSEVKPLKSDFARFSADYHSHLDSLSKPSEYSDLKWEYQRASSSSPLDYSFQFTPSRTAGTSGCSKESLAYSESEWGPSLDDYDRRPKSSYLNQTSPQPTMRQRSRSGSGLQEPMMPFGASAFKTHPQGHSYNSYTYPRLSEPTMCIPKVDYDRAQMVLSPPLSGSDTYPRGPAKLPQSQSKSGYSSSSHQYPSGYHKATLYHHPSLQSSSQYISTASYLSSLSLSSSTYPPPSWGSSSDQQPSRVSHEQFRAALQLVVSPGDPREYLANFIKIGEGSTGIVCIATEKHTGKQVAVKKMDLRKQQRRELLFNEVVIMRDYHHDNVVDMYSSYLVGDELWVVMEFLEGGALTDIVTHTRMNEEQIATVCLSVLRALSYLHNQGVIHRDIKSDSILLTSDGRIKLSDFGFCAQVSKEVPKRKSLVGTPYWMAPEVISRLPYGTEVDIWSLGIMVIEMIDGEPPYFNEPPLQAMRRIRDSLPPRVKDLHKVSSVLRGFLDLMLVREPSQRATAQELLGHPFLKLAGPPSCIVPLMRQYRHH
CONDITION_CONTEXT: at 0.1 µM
One number for each entry, in %.

Study these solved cases before continuing.
{"SMILES_REPR": "Fc1ccc(-c2cc(-c3c[nH]nc3-c3ccccn3)ccn2)cc1", "ENDPOINT_UNIT": "%", "inhibition": 6.2}
{"SMILES_REPR": "CNC(=O)c1cccc(C#Cc2cncnc2Nc2ccc(OCc3cccc(F)c3)c(Cl)c2)c1", "ENDPOINT_UNIT": "%", "inhibition": 7.61}
{"SMILES_REPR": "Fc1cccc(COc2ccc(Nc3ncnc4sc(-c5ccco5)cc34)cc2Cl)c1", "ENDPOINT_UNIT": "%", "inhibition": 2.39}
{"SMILES_REPR": "COc1cccc(-c2c[nH]c3c(N/N=C/c4ccncc4)ncnc23)c1", "ENDPOINT_UNIT": "%", "inhibition": 0.46}
{"SMILES_REPR": "COc1cc2c(cc1Nc1nc(Nc3ccsc3C(N)=O)c3cc[nH]c3n1)N(C(=O)CN(C)C)CCC2(C)C", "ENDPOINT_UNIT": "%", "inhibition": -2.38}

Items follow; give inhibition for each.
1. CC(=O)Nc1cccc(C#Cc2cncnc2Nc2ccc(OCc3cccc(F)c3)c(Cl)c2)c1
2. c1cc(-c2cnn3nc(N4CCOCC4)ccc23)nc(NC2CC2)n1
3. CCn1c(-c2nonc2N)nc2c(C#CC(C)(C)O)nc(OC[C@H](N)c3ccccc3)cc21
4. Cc1cccc(Nc2ncc(-c3ccccc3)o2)c1
5. CCNC(=O)O[C@H]1CN[C@H](C#Cc2cc3ncnc(Nc4ccc(OCc5cccc(F)c5)c(Cl)c4)c3s2)C1

Ans.
-5.54
6.57
37.3
1.42
5.88
